Organism: Rattus norvegicus
Experiment: DrugMatrix - Regimen: Daily Repeat
Type: toxicity, organism-based, Sprague-Dawley
Parameters: regimen Daily Repeat, gender Male, age 6-8 weeks
Details: in vivo, po, 0 mg/kg, 72 h, tissue Blood, route oral GAVAGE, dose level Control, time 3 day, vehicle .5 % CMC
Entries annotated with measured ERYTHROCYTE COUNT
Give the quantity in x10E6/uL, number only.

compound	unitSymbol	ERYTHROCYTE COUNT
C[C@@](Cc1ccc(O)c(O)c1)(NN)C(=O)O.O [CARBIDOPA]	x10E6/uL	5.76

Incoming: Recall and state the measured ERYTHROCYTE COUNT for CCCCC1=NC2(CCCC2)C(=O)N1Cc1ccc(-c2ccccc2-c2nnn[nH]2)cc1 [IRBESARTAN] .
Outgoing: 7.2

Incoming: Recall and state the measured ERYTHROCYTE COUNT for CCC1=C(C)CN(C(=O)NCCc2ccc(S(=O)(=O)NC(=O)N[C@H]3CC[C@H](C)CC3)cc2)C1=O [GLIMEPIRIDE] .
Outgoing: 5.51

Incoming: Recall and state the measured ERYTHROCYTE COUNT for COc1cc(OC)c(C(=O)CCCN2CCCC2)c(OC)c1 [BUFLOMEDIL] .
Outgoing: 5.57

Incoming: Recall and state the measured ERYTHROCYTE COUNT for CN1CCN(C2=Nc3cc(Cl)ccc3Nc3ccccc32)CC1 [CLOZAPINE] .
Outgoing: 6.2

Incoming: Recall and state the measured ERYTHROCYTE COUNT for CN1C(=O)CN=C(c2ccccc2)c2cc([N+](=O)[O-])ccc21 [NIMETAZEPAM] .
Outgoing: 6.96

Incoming: Recall and state the measured ERYTHROCYTE COUNT for COc1ccc2c(c1OC)C(=O)O[C@@H]2[C@H]1c2c(cc3c(c2OC)OCO3)CCN1C [NOSCAPINE] .
Outgoing: 7.15

Incoming: Recall and state the measured ERYTHROCYTE COUNT for C[C@@H]1O[C@@H](O[C@H]2C[C@@H](O)[C@]3(CO)[C@H]4[C@H](O)C[C@]5(C)[C@@H](C6=CC(=O)OC6)CC[C@]5(O)[C@@H]4CC[C@]3(O)C2)[C@H](O)[C@H](O)[C@H]1O [OUABAIN] .
Outgoing: 5.22
